These entries and their values trace back to ChEMBL document CHEMBL1146904.

test: Anticoagulant potency in human plasma by aPTT assay; format: functional
measuredEndpoint: 2aPTT (µM)
Numeric answer only, unit µM assumed.

What value of measured 2aPTT is listed for `Nc1[nH]ccc2nc(-c3cc(C(=O)O)cc(-c4cccc(CNC(=O)[C@@H](O)Cc5ccccc5)c4)c3O)cc1-2` ? 3.7

What value of measured 2aPTT is listed for `Nc1[nH]ccc2nc(-c3cccc(-c4cccc(CNC(=O)[C@@H](O)Cc5ccccc5)c4)c3O)cc1-2` ? 22

What value of measured 2aPTT is listed for `CC(C)(C(=O)O)c1cc(-c2cccc(CNC(=O)[C@@H](O)Cc3ccccc3)c2)c(O)c(-c2cc3c(N)[nH]ccc-3n2)c1` ? 17

* * *

Field: Ki. Provide a value for each of the compounds that follow.
target: Coagulation factor VII (Homo sapiens, UniProt P08709); assay: Binding affinity to f7a/TF complex
Sequence (P08709 whole entry): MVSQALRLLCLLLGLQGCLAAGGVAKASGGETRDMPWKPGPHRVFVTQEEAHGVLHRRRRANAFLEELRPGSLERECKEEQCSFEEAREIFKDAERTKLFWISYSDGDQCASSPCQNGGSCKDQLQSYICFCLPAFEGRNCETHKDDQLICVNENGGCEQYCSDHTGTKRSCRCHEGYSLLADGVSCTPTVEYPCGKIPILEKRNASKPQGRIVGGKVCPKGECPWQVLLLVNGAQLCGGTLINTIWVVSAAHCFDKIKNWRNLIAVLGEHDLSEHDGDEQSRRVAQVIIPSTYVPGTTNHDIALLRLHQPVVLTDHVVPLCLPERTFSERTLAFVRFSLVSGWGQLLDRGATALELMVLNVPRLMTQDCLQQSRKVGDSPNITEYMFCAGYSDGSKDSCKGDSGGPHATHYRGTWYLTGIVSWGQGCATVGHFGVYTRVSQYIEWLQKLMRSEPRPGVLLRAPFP
Record the result as number plus unit.

What value of measured Ki is listed for `Nc1[nH]ccc2nc(-c3cccc(-c4cccc(CNC(=O)[C@@H](O)Cc5ccccc5)c4)c3O)cc1-2` ? 81 nM

What value of measured Ki is listed for `CC(C)(C(=O)O)c1cc(-c2cccc(CNC(=O)Nc3c(F)cccc3F)c2)c(O)c(-c2cc3c(N)[nH]ccc-3n2)c1` ? 2.6 nM

What value of measured Ki is listed for `O=C(NCc1cccc(-c2cccc(-c3cc4c[nH]ccc-4n3)c2O)c1)[C@@H](O)Cc1ccccc1` ? 220 nM

What value of measured Ki is listed for `CC(C)(C(=O)O)c1cc(-c2cccc(CNC(=O)Nc3ccc(C(=O)O)cc3)c2)c(O)c(-c2cc3c(N)[nH]ccc-3n2)c1` ? 20 nM

What value of measured Ki is listed for `Nc1[nH]ccc2nc(-c3cc(C(=O)O)cc(-c4cccc(CNC(=O)[C@@H](O)Cc5ccccc5)c4)c3O)cc1-2` ? 1.3 nM

What value of measured Ki is listed for `CC(C)(C(=O)O)c1cc(-c2cccc(CNC(=O)[C@@H](O)Cc3ccccc3)c2)c(O)c(-c2cc3c(N)[nH]ccc-3n2)c1` ? 15 nM

* * *

molecular target: Prothrombin (Homo sapiens)
measuredEndpoint: pKi
Worth noting: pKi values are minus log10 of concentrations stated in mol/L.

What value of measured pKi is listed for `N=C(N)c1ccc2[nH]c(-c3cccc(-c4cc(CNC(N)=O)ccc4O)c3O)nc2c1` ? 4.05

* * *

target: Coagulation factor VII/tissue factor (Homo sapiens) (UniProt P08709+P13726); test: Anticoagulant potency in human plasma by PT assay; type: functional, cell-free
// NB: equality with 6 µM counts as not satisfied; only 2PT strictly below is satisfied

Strictly below 6 µM: is that where 2PT of `CC(C)(C(=O)O)c1cc(-c2cccc(CNC(=O)[C@@H](O)Cc3ccccc3)c2)c(O)c(-c2cc3c(N)[nH]ccc-3n2)c1` sits? not satisfied

Strictly below 6 µM: is that where 2PT of `CC(C)(C(=O)O)c1cc(-c2cccc(CNC(=O)Nc3c(F)cccc3F)c2)c(O)c(-c2cc3c(N)[nH]ccc-3n2)c1` sits? satisfied

Strictly below 6 µM: is that where 2PT of `Nc1[nH]ccc2nc(-c3cc(C(=O)O)cc(-c4cccc(CNC(=O)[C@@H](O)Cc5ccccc5)c4)c3O)cc1-2` sits? satisfied

Strictly below 6 µM: is that where 2PT of `CC(C)(C(=O)O)c1cc(-c2cccc(CNC(=O)Nc3ccc(C(=O)O)cc3)c2)c(O)c(-c2cc3c(N)[nH]ccc-3n2)c1` sits? satisfied

Strictly below 6 µM: is that where 2PT of `Nc1[nH]ccc2nc(-c3cccc(-c4cccc(CNC(=O)[C@@H](O)Cc5ccccc5)c4)c3O)cc1-2` sits? not satisfied
